B1: PEX5 peptide 108-123 (Peroxisomal targeting signal 1 receptor), 16-mer library wild type / PEX14 Pex14 (PEX14 PEX14, residues 16-84) (parent)
chain 1: GVADLALSENWAQEFL
chain 2: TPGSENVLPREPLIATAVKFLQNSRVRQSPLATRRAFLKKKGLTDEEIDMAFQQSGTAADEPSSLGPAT

# Variants of: B1
# measurement_description: proteomic peptide phage display deep mutational scan (ProP-PD DMS): M13 P8 16-mer library selected against immobilised GST-tagged bait for four days (rounds), NGS of the eluted pools per day and pseudo-replica
# settings: with PEX14 Pex14 (PEX14 PEX14, residues 16-84); bait immobilised on MaxiSorp plates (10 µg), library pre-cleared on GST, 2 h binding at 4 °C, five washes; one round per day, days 1-4; value from days 2 and 3; scale: average fractional NGS count over selection days 2 and 3
Give label 1 when the value for screen value is at least 0.0001. Give label 0 when it is less.

Answered examples (3):
>>> label("chain 1 F15I")
"label 0"
>>> label("chain 1 L7H")
"label 0"
>>> label("chain 1 E9G")
"label 1"

### Prompt In plain terms: is recorded screen value at least 0.0001 for chain 1 D4N ?
### Response label 0
